Reference source: patent US20110263566A1

Listed here: items and their measured pIC50.
Test system: HT-1197 cells
Experiment: cells
Conditions: Homo sapiens, HT1197, 72 h, read-out: IC50 (microM) (HT1197)
Convention used: pIC50 is expressed as -log10 of the molar concentration.

// returns reported pIC50 for input O=C(NC1CCCNC1)c1ccc(O)c2[nH]c(-c3cccs3)nc12 (stereo not drawn) [Example 35] 4.31

Please give the measured pIC50 for this compound: CN1CCCC(NC(=O)c2ccc(O)c3[nH]c(-c4cccs4)nc23)C1 (stereo not drawn) [Example 41] 4.62

Param item = O=C(N[C@H]1CCCNC1)c1ccc(O)c2[nH]c(Cc3cccs3)nc12 [Example 59] ; retrieve measured pIC50. 4.12

Value lookup for pIC50; key = O=C(N[C@H]1CCCNC1)c1ccc(O)c2[nH]c(C3CC4CCC3C4)nc12 (stereo partly drawn) [Example 52] 4.72

Fill in the blank: the reported pIC50 of O=C(N[C@H]1CCCNC1)c1ccc(O)c2[nH]c(-c3ccc(Br)s3)nc12 [Example 51] is ____. 5.24

Dear colleague, I am looking for the recorded pIC50 of the following compound: N[C@H]1CC[C@H](NC(=O)c2ccc(O)c3[nH]c(-c4cccs4)nc23)CC1 [Example 47] 4.24

Entry N[C@H]1CC[C@@H](CNC(=O)c2ccc(O)c3[nH]c(C4CC5CCC4C5)nc23)CC1 (stereo partly drawn) [Example 56] : reported pIC50 = ? 4.21

Reported pIC50, compound O=C(N[C@H]1CCCNC1)c1ccc(O)c2[nH]c(-c3cccs3)nc12 [Example 38] : ____ 4.48

----------
Test system: HT-1197 cells
Assay: cells
Conditions: Homo sapiens, HT1197, 72 h, read-out: IC50 (microM) (HT1197)
A collection of compounds and their measured pIC50
Bear in mind: pIC50 is minus log10 of a mol/L concentration; give just that figure.

Would you please look over these solved cases?
Recorded pIC50 for O=C(NCC1CCCCN1)c1ccc(O)c2[nH]c(-c3ccccc3)nc12 (stereo not shown) [Example 18] with HT-1197 cells, please? 4.01

Provide the documented pIC50 with HT-1197 cells as the system for O=C(NC[C@@H]1CCCNC1)c1ccc(O)c2[nH]c(Cc3cccs3)nc12 [Example 58] 4.68

Value wanted: pIC50 (HT-1197 cells) of entry O=C(NC1CCCNC1)c1ccc(O)c2[nH]c(C3CC4CCC3C4)nc12 (stereo not shown) [Example 49] 4.85

Test system HT-1197 cells; read-out pIC50; what value for NC12CC3CC(C1)CC(NC(=O)c1ccc(O)c4[nH]c(C5CC6CCC5C6)nc14)(C3)C2 (stereo not shown) [Example 53] ? 4.62

State its pIC50 on HT-1197 cells: O=C(NC1CCCNC1)c1ccc(O)c2[nH]c(C3CC3)nc12 (stereo not shown) [Example 11] 4.36

Now for a further compound.
API: value(readout=pIC50, system=HT-1197 cells) for record NC12CC3CC(C1)CC(NC(=O)c1ccc(O)c4[nH]c(-c5cccs5)nc14)(C3)C2 [Example 54] 5.00

----------
System: HT-1197 cells
Assay: cells
Conditions: Homo sapiens, HT1197, 72 h, read-out: IC50 (microM) (HT1197)
Experimental: To evaluate the expression status of PBK in several cell lines, western blot analysis was performed using crude cell lysate collected from those cells. 100 micro-L of cell suspension was seeded onto 96-well microtiter plate (ViewPlate-96FTC, PerkinElmer). […] Cellular growth was determined using Cell Counting Kit-8 (DOJINDO) at 72 hours after the exposure of the candidate inhibitors. […] Accurate IC50 values were calculated as described previously.
parameter-measured: IC50 (µM)
Give the number; µM is assumed, so skip it.

Below: 3 molecules and their reported IC50.
What value of IC50 has been recorded for this entry: O=C(N[C@H]1CCCNC1)c1ccc(O)c2[nH]c(C3CCCC3)nc12 19

Entry O=C(N[C@H]1CCCNC1)c1ccc(O)c2[nH]c(C3CC3)nc12 : reported IC50 = ? 7.1

Quick check: IC50 of O=C(N[C@H]1CCCNC1)c1ccc(O)c2[nH]c(-c3ccc(N4CCNCC4)s3)nc12 ? 33

Further cases:
Any idea what IC50 was measured for NC1CCCC(NC(=O)c2ccc(O)c3[nH]c(C4CC5CCC4C5)nc23)C1 (centres unmarked) ? 74

# input molecule: O=C(NC[C@H]1CCCNC1)c1ccc(O)c2[nH]c(Cc3cccs3)nc12 ; wanted: its IC50 33

----------
System: T47D cells
Experiment: cells
Conditions: Homo sapiens, 72 h, read-out: IC50 (microM) (T47D)
Method: To evaluate the expression status of PBK in several cell lines, western blot analysis was performed using crude cell lysate collected from those cells. 100 micro-L of cell suspension was seeded onto 96-well microtiter plate (ViewPlate-96FTC, PerkinElmer). […] Cellular growth was determined using Cell Counting Kit-8 (DOJINDO) at 72 hours after the exposure of the candidate inhibitors. […] Accurate IC50 values were calculated as described previously.
Attribute: pIC50
Answer as the number alone; pIC50 is minus log10 of concentration in mol/L.

Consider the reported pIC50 for these molecules:
Which measured pIC50 value corresponds to O=C(NCC1CCCNC1)c1ccc(O)c2[nH]c(C3CC4CCC3C4)nc12 (stereo not drawn) [Example 48] ? 4.31

For the molecule O=C(NCC1CCCCN1)c1ccc(O)c2[nH]c(C3CC3)nc12 (stereo not drawn) [Example 7] , what pIC50 is on record? 4.96

Dear colleague, I am looking for the recorded pIC50 of the following molecule: O=C(NC1CCNCC1)c1ccc(O)c2[nH]c(C3CC3)nc12 [Example 10] 4.72

Value lookup for pIC50; key = O=C(N[C@H]1CCCNC1)c1ccc(O)c2[nH]c(-c3ccc(Br)s3)nc12 [Example 51] 6.85

Give its pIC50 value. Item: N[C@H]1CC[C@@H](CNC(=O)c2ccc(O)c3[nH]c(C4CC5CCC4C5)nc23)CC1 (stereo partly drawn) [Example 56] 4.52

***
Give its pIC50 value. Item: O=C(NC1CCCNC1)c1ccc(O)c2[nH]c(-c3cccs3)nc12 (stereo not drawn) [Example 35] 6.09

May I ask what pIC50 has been recorded for NC12CC3CC(C1)CC(NC(=O)c1ccc(O)c4[nH]c(-c5cccs5)nc14)(C3)C2 [Example 54] ? 5.80

Which pIC50 value is on record for O=C(NC1CCNCC1)c1ccc(O)c2[nH]c(-c3cccs3)nc12 [Example 40] ? 4.89

Given O=C(N[C@H]1CCCNC1)c1ccc(O)c2[nH]c(-c3cccs3)nc12 [Example 38] , state its recorded pIC50. 6.44

What value of pIC50 has been recorded for this entry: O=C(N[C@H]1CCCNC1)c1ccc(O)c2[nH]c(C3CC4CCC3C4)nc12 (stereo partly drawn) [Example 52] 5.64

Endpoint output: pIC50 of O=C(NC1CCCNC1)c1ccc(O)c2[nH]c(C3CC4CCC3C4)nc12 (stereo not drawn) [Example 49] . Value? 5.39

So what does the record say about pIC50 for O=C(N[C@H]1CCCNC1)c1ccc(O)c2[nH]c(-c3ccc(N4CCNCC4)s3)nc12 [Example 57] ? 5.96

Which pIC50 reading was recorded for the molecule CN1CCCC(NC(=O)c2ccc(O)c3[nH]c(-c4cccs4)nc23)C1 (stereo not drawn) [Example 41] ? 5.01

----------
Test system: T47D cells
Assay: cells
Conditions: Homo sapiens, 72 h, read-out: IC50 (microM) (T47D)
Parameter class (string): assigned from measured IC50. Ranges: bottom range = under 8 µM, center range = from 8 µM up to 20 µM, top range = 20 µM and over

Place this molecule in its band: O=C(N[C@@H]1CCCNC1)c1ccc(O)c2[nH]c(-c3cccs3)nc12 center range

More entries:
Band for O=C(N[C@H]1CCCNC1)c1ccc(O)c2[nH]c(C3CC3)nc12 ? bottom range

Using the reported IC50, which band applies to N[C@H]1CC[C@H](NC(=O)c2ccc(O)c3[nH]c(-c4cccs4)nc23)CC1 ? bottom range

----------
Tested on: T47D cells
Assay: cells
Details: Homo sapiens, 72 h, read-out: IC50 (microM) (T47D)
parameter-measured: IC50 (µM)
// return numeric value only (unit: µM, not printed)

Look up IC50 for this molecule: NC12CC3CC(C1)CC(NC(=O)c1ccc(O)c4[nH]c(C5CC6CCC5C6)nc14)(C3)C2 (centres unmarked) 5.2

Item O=C(NC1CCNC1)c1ccc(O)c2[nH]c(-c3cccs3)nc12 (centres unmarked) has what recorded IC50? 20

So what's the measured IC50 for this one? O=C(NC1CCCNC1)c1ccc(O)c2[nH]c(C3CC3)nc12 (centres unmarked) 3.2

Please report the recorded IC50 for O=C(NCC1CCCNC1)c1ccc(O)c2[nH]c(C3CC3)nc12 (centres unmarked) . 55

Further cases:
Item under review: O=C(NCC1CCCNC1)c1ccc(O)c2[nH]c(-c3cccs3)nc12 (centres unmarked) . Reported IC50? 8.6

Which value of IC50 has been reported for O=C(NCC1CCCCN1)c1ccc(O)c2[nH]c(-c3cccs3)nc12 (centres unmarked) in the records? 7.8

Look up IC50 for this molecule: O=C(N[C@H]1CCCNC1)c1ccc(O)c2[nH]c(Cc3cccs3)nc12 11

Quick one: IC50 of O=C(NC1CCNC1)c1ccc(O)c2[nH]c(C3CC3)nc12 (centres unmarked) ? 58

Please give the measured IC50 for this molecule: O=C(NC[C@H]1CCCNC1)c1ccc(O)c2[nH]c(Cc3cccs3)nc12 42

# input molecule: O=C(NCC1CCCNC1)c1ccc(O)c2[nH]c(C3CCCC3)nc12 (centres unmarked) ; wanted: its IC50 21
